The reported measurements were obtained from the MegaScale stability set (Tsuboyama et al. 2023).

B1: EEHEE_rd4_0469 (parent)
chain: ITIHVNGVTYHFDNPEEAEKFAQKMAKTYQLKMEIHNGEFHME

# Variants of: B1
# measurement_protocol: folding stability dG (cDNA display proteolysis); higher = more stable
# assay_conditions: PBS, room temperature
measured_quantity: folding stability dG (kcal/mol)
Lab book: enter the figure in kcal/mol, no units written.

Answered examples (2):
F21T; -0.122
K32Q; 1.45

**Q:** Sample `N37A` — what was its folding stability dG?
**A:** 0.861

**Q:** Which folding stability dG value is on record for `Q30R` ?
**A:** 0.814

**Q:** What value of measured folding stability dG is listed for `V8F` ?
**A:** 1.36

**Q:** What does the record list as folding stability dG for `E19H` ?
**A:** 1.38

**Q:** Could you tell me which folding stability dG is on file for `Q30E` ?
**A:** 1.21

**Q:** # folding stability dG lookup, item `Y29I`
**A:** 0.788
